TARGET_DESC: UniProtKB P22607
TEST_SUMMARY: FGFR Enzymatic Assay (FRET peptide phosphorylation), FGFR3
Assay type: biochemical
CONDITION_DESCRIPTION: pre-incubated for 4 hours; read-out: FGFR3 IC50
pIC50: −log10 of the molar value.

{"columns": ["COMPOUND", "TARGET_DESC", "pIC50"],
 "data": [
  ["COc1cc(OC)c(F)c(N2Cc3cnc(-c4cn(C)nc4C)cc3N(C[C@H]3CCOC3)C2=O)c1F [Example 108]", "UniProtKB P22607", "7.52 to 8.00"],
  ["COc1cc(OC)c(F)c(N2Cc3cnc(-c4cn(C)nc4C)cc3N(c3ccc4nc(C)oc4c3)C2=O)c1F [Example 75]", "UniProtKB P22607", "7.52 to 8.00"],
  ["COc1cc(OC)c(F)c(N2Cc3cnc(-c4cn(CCC#N)nc4C)cc3C3(CC3)C2=O)c1F [Example 156]", "UniProtKB P22607", "> 8.00"],
  ["COc1cc(OC)c(F)c(N2Cc3cnc(-c4cnn(C5(C#N)CCC5)c4C)cc3C3(CC3)C2=O)c1F [Example 149]", "UniProtKB P22607", "> 8.00"],
  ["COc1cc(OC)c(F)c(N2Cc3cnc(-c4cnn(C5CCN(S(C)(=O)=O)C5)c4)cc3C3(CC3)C2=O)c1F (centres unmarked) [Example 147]", "UniProtKB P22607", "> 8.00"],
  ["CCCNC(=O)c1ccc(-c2cc3c(cn2)CN(c2c(F)c(OC)cc(OC)c2F)C(=O)N3CC)cn1 [Example 179]", "UniProtKB P22607", "> 8.00"],
  ["COc1cc(OC)c(F)c(N2Cc3cnc(-c4ccc(C5(C#N)CCC5)nc4)cc3N(c3cnn(C)c3)C2=O)c1F [Example 188]", "UniProtKB P22607", "7.52 to 8.00"],
  ["COc1cc(OC)c(F)c(N2Cc3cnc(-c4cn(C)nc4C)cc3N(Cc3cnn(C4CC4)c3)C2=O)c1F [Example 124]", "UniProtKB P22607", "> 8.00"]
]}

* * *

TARGET_DESC: FGFR3 enzyme (Homo sapiens (Human), UniProt P22607)
Sequence (P22607 23-806): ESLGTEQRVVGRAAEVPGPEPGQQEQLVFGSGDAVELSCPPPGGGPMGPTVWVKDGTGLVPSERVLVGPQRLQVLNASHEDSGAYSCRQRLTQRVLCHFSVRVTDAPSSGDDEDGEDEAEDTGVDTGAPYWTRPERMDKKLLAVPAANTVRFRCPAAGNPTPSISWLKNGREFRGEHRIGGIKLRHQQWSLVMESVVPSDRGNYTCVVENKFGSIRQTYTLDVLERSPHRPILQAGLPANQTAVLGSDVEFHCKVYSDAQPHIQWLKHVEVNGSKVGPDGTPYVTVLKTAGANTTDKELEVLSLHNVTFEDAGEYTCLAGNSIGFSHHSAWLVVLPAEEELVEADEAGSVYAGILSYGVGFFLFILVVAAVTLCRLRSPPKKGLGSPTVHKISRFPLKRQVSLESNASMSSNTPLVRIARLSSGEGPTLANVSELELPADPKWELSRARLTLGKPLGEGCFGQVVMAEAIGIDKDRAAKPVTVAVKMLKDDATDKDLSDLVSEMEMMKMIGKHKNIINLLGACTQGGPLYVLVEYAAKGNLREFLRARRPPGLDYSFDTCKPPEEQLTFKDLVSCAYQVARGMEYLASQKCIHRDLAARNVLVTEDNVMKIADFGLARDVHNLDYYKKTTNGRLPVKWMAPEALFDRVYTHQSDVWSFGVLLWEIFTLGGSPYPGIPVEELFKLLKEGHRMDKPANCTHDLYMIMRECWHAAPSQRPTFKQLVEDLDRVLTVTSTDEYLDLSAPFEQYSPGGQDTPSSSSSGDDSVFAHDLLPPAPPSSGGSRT
TEST_SUMMARY: FGFR Enzymatic Assay (FRET peptide phosphorylation), FGFR3
Type: biochemical
CONDITION_DESCRIPTION: FGFR3 selectivity; pre-incubated for 4 hours
In this section, each of the molecules is paired with its reported FGFR1/FGFR3 IC50 ratio.

{"columns": ["MOLECULE", "FGFR1/FGFR3 IC50 ratio"],
 "data": [
  ["COc1cc(OC)c(F)c(N2Cc3cnc(-c4cn(C)nc4C)cc3N(c3cnn(C4CC4)c3)C2=O)c1F", ">5"],
  ["COc1cc(OC)c(F)c(N2Cc3cnc(-c4cn(C5CCN(CC#N)C5)nc4C)cc3C3(CC3)C2=O)c1F (stereo not drawn)", ">5"],
  ["COc1cc(OC)c(F)c(N2Cc3cnc(-c4cn(C)nc4C)cc3N(c3ccc(C#N)cc3)C2=O)c1F", ">10"],
  ["COc1cc(OC)c(F)c(N2Cc3cnc(-c4cn(C)nc4C)cc3N(Cc3cnccn3)C2=O)c1F", ">5"],
  ["COc1cc(OC)c(F)c(N2Cc3cnc(-c4cn(C)nc4C)cc3N(C3CC3)C2=O)c1F", ">5"],
  ["COc1cc(OC)c(F)c(N2Cc3cnc(-c4ccncc4)cc3C3(CC3)C2=O)c1F", ">3"],
  ["COc1cc(OC)c(F)c(N2Cc3cnc(-c4cn(C)nc4C)cc3N(c3cc(F)cc(F)c3)C2=O)c1F", ">3"],
  ["COc1cc(OC)c(F)c(N2Cc3cnc(-c4cncc(F)c4)cc3C3(CC3)C2=O)c1F", ">3"],
  ["COc1cc(OC)c(F)c(N2Cc3cnc(-c4cn(C)nc4C)cc3N(c3ncccn3)C2=O)c1F", ">3"]
]}

* * *

TARGET_DESC: FGFR1 (Homo sapiens (Human), UniProt P11362)
Sequence (P11362 22-822): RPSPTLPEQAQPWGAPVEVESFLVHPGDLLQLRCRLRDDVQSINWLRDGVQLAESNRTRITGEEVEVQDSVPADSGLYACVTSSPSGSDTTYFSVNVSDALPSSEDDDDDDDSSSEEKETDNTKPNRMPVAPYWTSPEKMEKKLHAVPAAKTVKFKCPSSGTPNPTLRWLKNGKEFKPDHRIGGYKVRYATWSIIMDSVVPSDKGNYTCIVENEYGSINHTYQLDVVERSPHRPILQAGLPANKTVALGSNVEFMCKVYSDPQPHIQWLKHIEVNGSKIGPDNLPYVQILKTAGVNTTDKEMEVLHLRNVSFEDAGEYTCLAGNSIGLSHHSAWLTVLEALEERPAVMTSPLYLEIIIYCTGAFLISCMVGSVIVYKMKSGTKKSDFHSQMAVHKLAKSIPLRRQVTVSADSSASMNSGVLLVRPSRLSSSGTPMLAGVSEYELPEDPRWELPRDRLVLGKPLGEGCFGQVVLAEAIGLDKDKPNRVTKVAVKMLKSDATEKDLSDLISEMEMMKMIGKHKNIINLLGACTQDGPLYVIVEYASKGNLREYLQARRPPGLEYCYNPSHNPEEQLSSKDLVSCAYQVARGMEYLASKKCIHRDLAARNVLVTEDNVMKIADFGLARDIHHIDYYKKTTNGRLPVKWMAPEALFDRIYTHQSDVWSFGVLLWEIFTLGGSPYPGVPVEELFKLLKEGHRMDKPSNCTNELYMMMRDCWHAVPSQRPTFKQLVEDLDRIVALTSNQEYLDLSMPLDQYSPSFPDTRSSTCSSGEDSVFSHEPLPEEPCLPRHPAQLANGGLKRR
TEST_SUMMARY: FGFR Enzymatic Assay (FRET peptide phosphorylation), FGFR1
CONDITION_DESCRIPTION: read-out: FGFR1 IC50; pre-incubated for 4 hours
OBSERVED_PROPERTY: IC50

{"columns": ["MOLECULE", "OBSERVED_PROPERTY", "VALUE_MEASURED"],
 "data": [
  ["COc1cc(OC)c(F)c(N2Cc3cnc(-c4cc(N)c(F)cc4C)cc3C3(CC3)C2=O)c1F", "IC50", "> 200 nM"],
  ["COc1cc(OC)c(F)c(N2Cc3cnc(-c4cn(C)nc4C)cc3N(Cc3cnn(C4CC4)c3)C2=O)c1F", "IC50", "< 10 nM"],
  ["COc1cc(OC)c(F)c(N2Cc3cnc(-c4cncc(C#N)c4)cc3C3(CC3)C2=O)c1F", "IC50", "> 200 nM"],
  ["COc1cc(OC)c(F)c(N2Cc3cnc(-c4ccccc4)cc3C3(CC3)C2=O)c1F", "IC50", "> 200 nM"],
  ["COc1cc(OC)c(F)c(N2Cc3cnc(-c4cncc(CN5CCOCC5)c4)cc3C3(CC3)C2=O)c1F", "IC50", "> 200 nM"],
  ["CCN1C(=O)N(c2c(F)c(OC)cc(OC)c2F)Cc2cnc(-c3cn(CC(=O)N4CCOCC4)nc3C)cc21", "IC50", "> 200 nM"],
  ["COc1cc(OC)c(F)c(N2Cc3cnc(-c4cc(N)ccc4C)cc3C3(CC3)C2=O)c1F", "IC50", "> 200 nM"],
  ["COc1cc(OC)c(F)c(N2Cc3cnc(-c4cn(C)nc4C)cc3N(Cc3cnn(C)c3)C2=O)c1F", "IC50", "< 10 nM"],
  ["COc1cc(OC)c(F)c(N2Cc3cnc(-c4cn(C)nc4C)cc3N(C3CC(=O)N(C)C3)C2=O)c1F (stereo not drawn)", "IC50", "> 200 nM"]
]}

* * *

TARGET_DESC: FGFR4 (Homo sapiens (Human), UniProt P22455)
Sequence (P22455 22-802): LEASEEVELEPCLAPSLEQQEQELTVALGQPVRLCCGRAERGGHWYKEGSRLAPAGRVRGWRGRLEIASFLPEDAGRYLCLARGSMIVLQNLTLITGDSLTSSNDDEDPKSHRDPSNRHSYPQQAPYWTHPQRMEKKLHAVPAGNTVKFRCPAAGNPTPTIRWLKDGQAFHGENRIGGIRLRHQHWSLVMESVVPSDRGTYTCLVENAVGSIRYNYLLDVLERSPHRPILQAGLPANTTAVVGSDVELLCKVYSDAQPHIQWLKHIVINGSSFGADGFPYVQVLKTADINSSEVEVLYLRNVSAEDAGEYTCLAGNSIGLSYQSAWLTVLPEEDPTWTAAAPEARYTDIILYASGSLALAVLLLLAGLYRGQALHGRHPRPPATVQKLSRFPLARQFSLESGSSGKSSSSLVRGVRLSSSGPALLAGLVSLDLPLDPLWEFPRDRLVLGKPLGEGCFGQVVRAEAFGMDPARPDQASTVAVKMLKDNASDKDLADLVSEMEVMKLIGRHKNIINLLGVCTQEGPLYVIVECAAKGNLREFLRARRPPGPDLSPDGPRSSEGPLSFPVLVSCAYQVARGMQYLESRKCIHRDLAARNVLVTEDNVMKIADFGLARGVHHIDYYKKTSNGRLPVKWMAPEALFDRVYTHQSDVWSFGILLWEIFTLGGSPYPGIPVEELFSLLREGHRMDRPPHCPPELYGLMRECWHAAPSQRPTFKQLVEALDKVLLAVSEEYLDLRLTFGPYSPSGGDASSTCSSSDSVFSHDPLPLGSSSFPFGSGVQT
TEST_SUMMARY: FGFR Enzymatic Assay (FRET peptide phosphorylation), FGFR4
Type: biochemical
CONDITION_DESCRIPTION: pre-incubated for 5 to 10 minutes
pIC50: −log10 of the molar value.

{"columns": ["MOLECULE", "pIC50"],
 "data": [
  ["COc1cc(OC)c(F)c(N2Cc3cnc(-c4cc(N)c(F)cc4C)cc3C3(CC3)C2=O)c1F", "6.70 to 7.52"],
  ["COc1cc(OC)c(F)c(N2Cc3cnc(-c4cn(C)nc4C)cc3N(Cc3ccnc(C)n3)C2=O)c1F", "6.70 to 7.52"],
  ["COc1cc(OC)c(F)c(N2Cc3cnc(-c4cnn(C)c4)cc3C3(CC3)C2=O)c1F", "> 8.00"],
  ["COc1cc(OC)c(F)c(N2Cc3cnc(-c4ccc(C5(C#N)CCC5)nc4)cc3N(c3ccccn3)C2=O)c1F", "6.70 to 7.52"],
  ["COc1cc(OC)c(F)c(N2Cc3cnc(-c4cn(C)nc4C)cc3N(c3ccc4c(c3)CC(=O)N4)C2=O)c1F", "7.52 to 8.00"],
  ["COc1cncc(-c2cc3c(cn2)CN(c2c(F)c(OC)cc(OC)c2F)C(=O)C32CC2)c1", "> 8.00"],
  ["COc1cc(OC)c(F)c(N2Cc3cnc(-c4cncc(N)c4)cc3C3(CC3)C2=O)c1F", "> 8.00"],
  ["COc1cc(OC)c(F)c(N2Cc3cnc(-c4cccnc4)cc3C3(CC3)C2=O)c1F", "7.52 to 8.00"],
  ["COCCN1C(=O)N(c2c(F)c(OC)cc(OC)c2F)Cc2cnc(-c3ccc(C4(C#N)CCC4)nc3)cc21", "6.70 to 7.52"],
  ["COc1cc(OC)c(F)c(N2Cc3cnc(-c4cncc(N5CCOCC5)c4)cc3C3(CC3)C2=O)c1F", "> 8.00"]
]}

* * *

TARGET_DESC: FGFR2 (Homo sapiens (Human))
Sequence (P21802 22-821): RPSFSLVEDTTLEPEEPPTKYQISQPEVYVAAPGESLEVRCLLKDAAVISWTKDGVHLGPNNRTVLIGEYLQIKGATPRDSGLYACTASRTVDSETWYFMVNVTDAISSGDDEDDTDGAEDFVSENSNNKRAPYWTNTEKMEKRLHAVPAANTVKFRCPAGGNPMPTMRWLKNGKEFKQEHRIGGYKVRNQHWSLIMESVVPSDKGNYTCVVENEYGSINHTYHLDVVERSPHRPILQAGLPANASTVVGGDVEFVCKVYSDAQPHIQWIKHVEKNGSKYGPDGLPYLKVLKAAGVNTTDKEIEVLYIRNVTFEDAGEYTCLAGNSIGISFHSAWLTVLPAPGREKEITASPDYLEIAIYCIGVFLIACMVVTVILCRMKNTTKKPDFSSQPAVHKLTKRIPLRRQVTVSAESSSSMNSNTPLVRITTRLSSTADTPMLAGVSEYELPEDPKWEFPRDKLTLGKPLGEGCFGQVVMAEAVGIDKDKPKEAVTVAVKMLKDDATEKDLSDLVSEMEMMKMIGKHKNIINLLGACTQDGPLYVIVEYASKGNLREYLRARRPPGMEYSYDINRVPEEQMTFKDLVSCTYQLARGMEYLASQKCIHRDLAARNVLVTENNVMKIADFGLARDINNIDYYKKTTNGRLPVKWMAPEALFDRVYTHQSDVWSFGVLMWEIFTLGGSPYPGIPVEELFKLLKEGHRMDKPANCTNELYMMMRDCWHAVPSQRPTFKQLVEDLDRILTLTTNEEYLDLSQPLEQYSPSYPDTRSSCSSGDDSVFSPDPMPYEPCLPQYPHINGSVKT
TEST_SUMMARY: FGFR Enzymatic Assay (FRET peptide phosphorylation), FGFR2
Type: biochemical
CONDITION_DESCRIPTION: pre-incubated for 5 to 10 minutes
In this section, each of the compounds is paired with its reported IC50.
OBSERVED_PROPERTY: IC50

{"columns": ["COMPOUND", "VALUE_MEASURED"],
 "data": [
  ["COc1cc(OC)c(F)c(N2Cc3cnc(-c4cncc(F)c4)cc3C3(CC3)C2=O)c1F [Example 5]", "10 to 30 nM"],
  ["CCn1cc(CN2C(=O)N(c3c(F)c(OC)cc(OC)c3F)Cc3cnc(-c4ccn(C)n4)cc32)cn1 [Example 143]", "10 to 30 nM"],
  ["COc1cc(OC)c(F)c(N2Cc3cnc(-c4cn(C)nc4C)cc3N(c3ccnnc3)C2=O)c1F [Example 57]", "30 to 200 nM"],
  ["COc1cc(OC)c(F)c(N2Cc3cnc(-c4ccc(C5(C#N)CCC5)nc4)cc3N(Cc3nnc(C)o3)C2=O)c1F [Example 187]", "< 10 nM"],
  ["COc1cc(OC)c(F)c(N2Cc3cnc(-c4cn(C)nc4C)cc3N(c3ccc4c(c3)CC(=O)N4)C2=O)c1F [Example 119]", "< 10 nM"],
  ["CCN1C(=O)N(c2c(F)c(OC)cc(OC)c2F)Cc2cnc(-c3cnn(C)c3)cc21 [Example 169]", "< 10 nM"],
  ["COCCN1C(=O)N(c2c(F)c(OC)cc(OC)c2F)Cc2cnc(-c3ccc(C4(C#N)CCC4)nc3)cc21 [Example 139]", "< 10 nM"],
  ["COc1cc(OC)c(F)c(N2Cc3cnc(-c4cn(C)nc4C)cc3N(Cc3ccc4c(c3)nnn4C)C2=O)c1F [Example 118]", "10 to 30 nM"],
  ["COc1cc(OC)c(F)c(N2Cc3cnc(-c4cncc(S(=O)(=O)N5CCOCC5)c4)cc3C3(CC3)C2=O)c1F [Example 14]", "30 to 200 nM"],
  ["COc1cncc(-c2cc3c(cn2)CN(c2c(F)c(OC)cc(OC)c2F)C(=O)C32CC2)c1 [Example 10]", "10 to 30 nM"]
]}
